Cited source for all entries: PubChem BioAssay AID1490

Molecular target: 4'-phosphopantetheinyl transferase ffp (Bacillus subtilis)
Assay: qHTS Assay for Inhibitors of Bacillus subtilis Sfp phosphopantetheinyl transferase (PPTase);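 also: the enzyme is Sfp with the accession as filed and its product quenches rhodamine fluorescence; potency is read from the fitted curve at half-maximal effect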
Settings: Biochemical Sfp PPTase activity
The campaign covered roughly 310,000 compounds. About 11,000 (3.5%) were called active. Roughly 4% stayed inconclusive and do not appear here. Shown is part of a subset that was picked to be rich in actives.
Measured Potency by item

compound	Potency
CC(NC(=O)CSc1nc2c(cc1C#N)CN(C)CC2)c1ccccc1 (stereo unspecified)	56.2 µM (active)
COc1ncnc2c1N=C1CC(C)(C)CC(N)=C1S2	44.7 µM (active)
Nc1ccc(Nc2ccccc2)cc1	56.2 µM (active)
CCCn1c(SCC(=O)c2ccc3c(c2)OCCO3)nnc1C(C)C	79.4 µM (active)
Cc1cc(C)c2nc(N(CCN(C)C)C(=O)/C=C/c3cccs3)sc2c1	89.1 µM (active)
CC(C)c1ccc(N2CCN(C(=O)c3ccccc3NC(=O)/C=C(\C(=O)O)c3ccccc3)CC2)cc1	56.2 µM (active)
CCN(CC)C(=O)c1sc2nc(-c3ccccc3)ccc2c1N	20 µM (active)
CCCc1cc(=S)n2c([nH]c3ccccc32)c1C#N	56.2 µM (active)
Fc1ccc(-c2ccc(-c3nn4c(-c5ccco5)nnc4s3)o2)cc1	17.8 µM (active)
CCCn1c(C2CCCN2c2nc(-c3ccc(OC)cc3)cs2)nc2ccccc21 (stereo unspecified)	89.1 µM (active)
NS(=O)(=O)c1ccc(NC(=S)Nc2ccc(Br)c(Cl)c2)cc1	56.2 µM (active)
